# tgt: T1, human IL-15Rα (human, UniProt Q13261 31-205, limits assumed)
# T1 construct: also called hIL-15Rα; IL-15 receptor alpha
# assay.name: SPR, steady state
Each entry below carries its recorded pKd.
pKd (log units): -log10 of the concentration in mol/L.

Worked examples, 5 binders total:
binder | pKd
hIL-15 V49R/K10H (ligand) NWVNVISDLHKIEDLIQSMHIDATLYTESDVHPSCKVTAMKCFLLELQRISLESGDASIHDTVENLIILANNSLSSNGNVTESGCKECEELEEKNIKEFLQSFVHIVQMFINTGGGGSGHHHHHHHHGGGLNDIFEAQKIEWHE | 7.07
hIL-15 V49R/N4K (ligand) NWVKVISDLKKIEDLIQSMHIDATLYTESDVHPSCKVTAMKCFLLELQRISLESGDASIHDTVENLIILANNSLSSNGNVTESGCKECEELEEKNIKEFLQSFVHIVQMFINTGGGGSGHHHHHHHHGGGLNDIFEAQKIEWHE | 7.14
hIL-15 V49R/D61A (ligand) NWVNVISDLKKIEDLIQSMHIDATLYTESDVHPSCKVTAMKCFLLELQRISLESGDASIHATVENLIILANNSLSSNGNVTESGCKECEELEEKNIKEFLQSFVHIVQMFINTGGGGSGHHHHHHHHGGGLNDIFEAQKIEWHE | 7.11
hIL-15 V49R/I111D (ligand) NWVNVISDLKKIEDLIQSMHIDATLYTESDVHPSCKVTAMKCFLLELQRISLESGDASIHDTVENLIILANNSLSSNGNVTESGCKECEELEEKNIKEFLQSFVHIVQMFDNTGGGGSGHHHHHHHHGGGLNDIFEAQKIEWHE | 6.67
hIL-15 V49R/D30Y (ligand) NWVNVISDLKKIEDLIQSMHIDATLYTESYVHPSCKVTAMKCFLLELQRISLESGDASIHDTVENLIILANNSLSSNGNVTESGCKECEELEEKNIKEFLQSFVHIVQMFINTGGGGSGHHHHHHHHGGGLNDIFEAQKIEWHE | 6.80

Ask: Please look up its pKd: hIL-15 V49R/V31S (ligand) NWVNVISDLKKIEDLIQSMHIDATLYTESDSHPSCKVTAMKCFLLELQRISLESGDASIHDTVENLIILANNSLSSNGNVTESGCKECEELEEKNIKEFLQSFVHIVQMFINTGGGGSGHHHHHHHHGGGLNDIFEAQKIEWHE
Result: 6.58

Ask: Please look up its pKd: hIL-15 V49R/L69A (ligand) NWVNVISDLKKIEDLIQSMHIDATLYTESDVHPSCKVTAMKCFLLELQRISLESGDASIHDTVENLIIAANNSLSSNGNVTESGCKECEELEEKNIKEFLQSFVHIVQMFINTGGGGSGHHHHHHHHGGGLNDIFEAQKIEWHE
Result: 7.08

Ask: Please look up its pKd: hIL-15 V49R/S29D (ligand) NWVNVISDLKKIEDLIQSMHIDATLYTEDDVHPSCKVTAMKCFLLELQRISLESGDASIHDTVENLIILANNSLSSNGNVTESGCKECEELEEKNIKEFLQSFVHIVQMFINTGGGGSGHHHHHHHHGGGLNDIFEAQKIEWHE
Result: 6.92

Ask: Please look up its pKd: hIL-15 V49R/D30I (ligand) NWVNVISDLKKIEDLIQSMHIDATLYTESIVHPSCKVTAMKCFLLELQRISLESGDASIHDTVENLIILANNSLSSNGNVTESGCKECEELEEKNIKEFLQSFVHIVQMFINTGGGGSGHHHHHHHHGGGLNDIFEAQKIEWHE
Result: 6.71

Ask: Please look up its pKd: hIL-15 V49R/D30A (ligand) NWVNVISDLKKIEDLIQSMHIDATLYTESAVHPSCKVTAMKCFLLELQRISLESGDASIHDTVENLIILANNSLSSNGNVTESGCKECEELEEKNIKEFLQSFVHIVQMFINTGGGGSGHHHHHHHHGGGLNDIFEAQKIEWHE
Result: 6.82

Ask: Please look up its pKd: hIL-15 V49R/H32A (ligand) NWVNVISDLKKIEDLIQSMHIDATLYTESDVAPSCKVTAMKCFLLELQRISLESGDASIHDTVENLIILANNSLSSNGNVTESGCKECEELEEKNIKEFLQSFVHIVQMFINTGGGGSGHHHHHHHHGGGLNDIFEAQKIEWHE
Result: 6.82

Ask: Please look up its pKd: hIL-15 V49R/N1T (ligand) TWVNVISDLKKIEDLIQSMHIDATLYTESDVHPSCKVTAMKCFLLELQRISLESGDASIHDTVENLIILANNSLSSNGNVTESGCKECEELEEKNIKEFLQSFVHIVQMFINTGGGGSGHHHHHHHHGGGLNDIFEAQKIEWHE
Result: 6.98

Ask: Please look up its pKd: hIL-15 V49R/M109S (ligand) NWVNVISDLKKIEDLIQSMHIDATLYTESDVHPSCKVTAMKCFLLELQRISLESGDASIHDTVENLIILANNSLSSNGNVTESGCKECEELEEKNIKEFLQSFVHIVQSFINTGGGGSGHHHHHHHHGGGLNDIFEAQKIEWHE
Result: 6.72
